Assay: Pharmacokinetic properties in C57Bl/6 mice
Format: in vivo
Conditions: mouse, plasma, 10 mg/kg PO, read-out: Terminal T1/2 (converted)
measured quantity: half-life (h)
I only need the number, in h, no unit after it.

Return half-life (reported value) for this compound: CO[C@@H]1C[C@H](C[C@@H](C)[C@@H]2CC(=O)[C@H](C)/C=C(\C)[C@@H](O)[C@@H](OC)C(=O)[C@H](C)C[C@H](C)/C=C/C=C/C=C(\C)[C@@H](OCCOCCOCCO)C[C@@H]3CC[C@@H](C)[C@@](O)(O3)C(=O)C(=O)N3CCCC[C@H]3C(=O)O2)CC[C@H]1O [I-29]
11

---

Test: Pharmacokinetic properties in C57Bl/6 mice
Type: in vivo
Details: mouse, plasma, 1 mg/kg IV
measured quantity: clearance (mL/min/kg)
I only need the number, in mL/min/kg, no unit after it.

compound	clearance, mL/min/kg
CO[C@H]1C[C@@H]2CC[C@@H](C)[C@@](O)(O2)C(=O)C(=O)N2CCCC[C@H]2C(=O)O[C@H]([C@H](C)C[C@@H]2CC[C@@H](O)[C@H](OC)C2)CC(=O)[C@H](C)/C=C(\C)[C@@H](O)[C@@H](OC)C(=O)[C@H](C)C[C@H](C)/C=C/C=C/C=C/1C	4.6

# next compound below
Return clearance (reported value) for this compound: CO[C@@H]1C[C@H](C[C@@H](C)[C@@H]2CC(=O)[C@H](C)/C=C(\C)[C@@H](O)[C@@H](OC)C(=O)[C@H](C)C[C@H](C)/C=C/C=C/C=C(\C)[C@@H](OCCOCCOCCO)C[C@@H]3CC[C@@H](C)[C@@](O)(O3)C(=O)C(=O)N3CCCC[C@H]3C(=O)O2)CC[C@H]1O
0.9

---

Test: Pharmacokinetic properties in C57Bl/6 mice
Format: in vivo
Conditions: mouse, plasma, 2 mg/kg IP, read-out: Terminal T1/2 (converted)
Here the recorded half-life is given for each entry.
I only need the number, in h, no unit after it.

compound	half-life, h
CO[C@H]1C[C@@H]2CC[C@@H](C)[C@@](O)(O2)C(=O)C(=O)N2CCCC[C@H]2C(=O)O[C@H]([C@H](C)C[C@@H]2CC[C@@H](O)[C@H](OC)C2)CC(=O)[C@H](C)/C=C(\C)[C@@H](O)[C@@H](OC)C(=O)[C@H](C)C[C@H](C)/C=C/C=C/C=C/1C [Rapamycin, rapamycin]	4.8

# next compound below
Return half-life (reported value) for this compound: CO[C@@H]1C[C@H](C[C@@H](C)[C@@H]2CC(=O)[C@H](C)/C=C(\C)[C@@H](O)[C@@H](OC)C(=O)[C@H](C)C[C@H](C)/C=C/C=C/C=C(\C)[C@@H](OCCOCCOCCO)C[C@@H]3CC[C@@H](C)[C@@](O)(O3)C(=O)C(=O)N3CCCC[C@H]3C(=O)O2)CC[C@H]1O [I-29]
12.6

---

Test: Pharmacokinetic properties in C57Bl/6 mice
Type: in vivo
Details: mouse, plasma, 1 mg/kg IV
measured quantity: MRT inf

compound	experimental value
CO[C@H]1C[C@@H]2CC[C@@H](C)[C@@](O)(O2)C(=O)C(=O)N2CCCC[C@H]2C(=O)O[C@H]([C@H](C)C[C@@H]2CC[C@@H](O)[C@H](OC)C2)CC(=O)[C@H](C)/C=C(\C)[C@@H](O)[C@@H](OC)C(=O)[C@H](C)C[C@H](C)/C=C/C=C/C=C/1C [Rapamycin, rapamycin]	6.27 h

# next compound below
Return MRT inf (reported value) for this compound: CO[C@@H]1C[C@H](C[C@@H](C)[C@@H]2CC(=O)[C@H](C)/C=C(\C)[C@@H](O)[C@@H](OC)C(=O)[C@H](C)C[C@H](C)/C=C/C=C/C=C(\C)[C@@H](OCCOCCOCCO)C[C@@H]3CC[C@@H](C)[C@@](O)(O3)C(=O)C(=O)N3CCCC[C@H]3C(=O)O2)CC[C@H]1O [I-29]
15.9 h
